- System: Escherichia coli TOP10;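 also: peptides expressed intracellularly from a pBAD plasmid library in pooled LB shake-flask culture, induced with 0.3% L-arabinose, DNA abundance read by NGS, three biological replicates, DESeq2 with apeglm shrinkage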
- test_method_notes: shrunken log2 fold change of peptide-encoding DNA abundance (4.5 h post-induction vs induction); higher = less antimicrobial activity (less host growth inhibition)
- test_conditions: time post-induction: 4.5 h; library: site-saturation at positions 5, 18, 19, 20
Each entry falls into one class according to its shrunken log2 fold change; the ranges are LOW: < -0.2; MEDIUM: ≥ -0.2 and < 0.3; HIGH: ≥ 0.3

Below are worked cases with known answers.
{"columns": ["chain", "target_system", "class_assignment"],
 "data": [
  ["RRIRHRPPRLPRPRPRPTLSPRP", "Escherichia coli TOP10", "MEDIUM"],
  ["RRIRERPPRLPRPRPRPDGKPRP", "Escherichia coli TOP10", "MEDIUM"],
  ["RRIRMRPPRLPRPRPRPDLKPRP", "Escherichia coli TOP10", "HIGH"]
]}

Just checking, what class would you give RRIRYRPPRLPRPRPRPLPKPRP here?
MEDIUM

Band of RRIRHRPPRLPRPRPRPQEPPRP ?
MEDIUM

Classify this sequence: RRIRCRPPRLPRPRPRPMIIPRP
MEDIUM

Band for the recorded shrunken log2 fold change of RRIRDRPPRLPRPRPRPCSEPRP ?
MEDIUM

Kindly identify the class of RRIRTRPPRLPRPRPRPMPSPRP .
MEDIUM
